Reference for the values: patent US6716833B2

- measuredOn: UniProtKB P14780
- assayExplanation: MMP-9 inhibition (thiopeptide or fluorescent peptide substrate)
- Format: biochemical
- setupConditions: read-out: MMP-9 IC50
pIC50: −log10 of the molar value.
readoutKind: pIC50

CC#CCOc1ccc(S(=O)(=O)N(CC#CCN2CCN(C)CC2)C(C)C(=O)NO)cc1 (centres unmarked) [Example 135] :: 6.85

(P) CC#CCOc1ccc(S(=O)(=O)N(CC#CCNC)C(C(=O)NO)C(C)C)cc1 (centres unmarked) [Example 127]
(Q) CC#CCOc1ccc(S(=O)(=O)N[C@@H](C(=O)NO)c2ccc(OCCNC(C)=O)cc2)cc1 [Example 201]
Request: API: POST /compare with P and Q ; response names the item with higher pIC50. Reply briefly: the label of your chosen item.
Response: P
(P: 7.28, Q: 6.24)

* * *

- measuredOn: UniProtKB P14780
- assayExplanation: MMP-9 inhibition (thiopeptide or fluorescent peptide substrate)
- Assay type: biochemical
- setupConditions: read-out: MMP-9 IC50
Counter-ions that a name gives are not always drawn.
readoutKind: IC50 (nM)

In the examples that follow, each entry is paired with its recorded IC50.
CC#CCOc1ccc(S(=O)(=O)N2CCN(Cc3cccnc3)CC2C(=O)NO)cc1 (centres unmarked) [Example 234] :: 108
CC#CCOc1ccc(S(=O)(=O)N2CCN(S(C)(=O)=O)CC2C(=O)NO)cc1 (centres unmarked) [Example 227] :: 51
CC#CCOc1ccc(S(=O)(=O)N(C)C(C(=O)NO)C(C)(C)SCCN2CCN(C)CC2)cc1 (centres unmarked) [Example 141] :: 8.3
CC#CCOc1ccc(S(=O)(=O)N(CCCc2ccccc2)C(C(=O)NO)C(C)C)cc1 (centres unmarked) [Example 111] :: 1420
CC#CCOc1ccc(S(=O)(=O)N[C@@H](C(=O)NO)c2ccc(OCCN)cc2)cc1 [Example 200] :: 518

(I) CC#CCOc1ccc(S(=O)(=O)NC(C(=O)NO)C(C)(C)SCc2nccn2C)cc1 (centres unmarked) [Example 163]
(II) CC#CCOc1ccc(S(=O)(=O)NC(C(=O)NO)C(C)(C)SCC(=O)O)cc1 (centres unmarked) [Example 166, Acetic Acid, Sodium Salt]
Request: Which has the smaller recorded IC50, I or II ? Reply briefly: the label of your chosen item.
Response: I
(I: 306 nM, II: 2940 nM)

(I) CC#CCOc1ccc(S(=O)(=O)N2CSC(C)(C)[C@@H]2C(=O)NO)cc1 [Example 286]
(II) CC#CCOc1ccc(S(=O)(=O)N(CC)C(C(=O)NO)C(C)C)cc1 (centres unmarked) [Example 108]
Request: API: POST /compare with I and II ; response names the item with higher IC50. Reply briefly: the label of your chosen item.
Response: I

(A) CC#CCOc1ccc(S(=O)(=O)N(C)C(C(=O)NO)c2ccc(OCCN3CCOCC3)cc2)cc1 (centres unmarked) [Example 179]
(B) CC#CCOc1ccc(S(=O)(=O)N(C)C(C(=O)NO)c2ccc(OC)cc2)cc1 (centres unmarked) [Example 178]
(C) CC#CCOc1ccc(S(=O)(=O)NC(CSCCCCCCCCCC/C=C\CC)C(=O)NO)cc1 (centres unmarked) [Example 170]
(D) CC#CCOc1ccc(S(=O)(=O)N2CCN(C(=O)N(CC)CC)CC2C(=O)NO)cc1 (centres unmarked) [Example 216]
(E) CC#CCOc1ccc(S(=O)(=O)NC(C(=O)NO)C(C)(C)SCc2ccccc2)cc1 (centres unmarked) [Example 162]
Request: # rank_down: sort by IC50, max first List the labels according to the requested ordering.
Response: C, D, E, B, A

* * *

- measuredOn: MMP-1 (Homo sapiens)
- Sequence (P03956 100-469): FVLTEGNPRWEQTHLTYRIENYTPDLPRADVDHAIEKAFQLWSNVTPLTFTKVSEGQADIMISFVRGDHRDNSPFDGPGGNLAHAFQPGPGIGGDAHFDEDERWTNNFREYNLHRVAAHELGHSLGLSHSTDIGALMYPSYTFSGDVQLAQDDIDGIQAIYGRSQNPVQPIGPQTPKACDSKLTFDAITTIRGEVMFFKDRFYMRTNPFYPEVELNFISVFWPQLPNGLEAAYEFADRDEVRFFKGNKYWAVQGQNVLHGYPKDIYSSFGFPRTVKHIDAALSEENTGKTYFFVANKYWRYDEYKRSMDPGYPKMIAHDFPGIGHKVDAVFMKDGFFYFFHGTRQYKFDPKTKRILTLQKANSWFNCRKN
- assayExplanation: MMP-1 inhibition (thiopeptide or fluorescent peptide substrate)
- Assay type: biochemical
- setupConditions: read-out: MMP-1 IC50
readoutKind: IC50 (µM)

(a) CC#CCOc1ccc(S(=O)(=O)NC(C)C(=O)NO)cc1 (stereo not drawn)
(b) CC#CCOc1ccc(S(=O)(=O)N(Cc2cccnc2)[C@@H](C(=O)NO)C2CCCCC2)cc1
Request: Which has the smaller recorded IC50, a or b ? Reply briefly: the label of your chosen item.
Response: b

* * *

- measuredOn: TNF-α converting enzyme (TACE) (Homo sapiens, UniProt P78536)
- Sequence (P78536 215-824, species assumed): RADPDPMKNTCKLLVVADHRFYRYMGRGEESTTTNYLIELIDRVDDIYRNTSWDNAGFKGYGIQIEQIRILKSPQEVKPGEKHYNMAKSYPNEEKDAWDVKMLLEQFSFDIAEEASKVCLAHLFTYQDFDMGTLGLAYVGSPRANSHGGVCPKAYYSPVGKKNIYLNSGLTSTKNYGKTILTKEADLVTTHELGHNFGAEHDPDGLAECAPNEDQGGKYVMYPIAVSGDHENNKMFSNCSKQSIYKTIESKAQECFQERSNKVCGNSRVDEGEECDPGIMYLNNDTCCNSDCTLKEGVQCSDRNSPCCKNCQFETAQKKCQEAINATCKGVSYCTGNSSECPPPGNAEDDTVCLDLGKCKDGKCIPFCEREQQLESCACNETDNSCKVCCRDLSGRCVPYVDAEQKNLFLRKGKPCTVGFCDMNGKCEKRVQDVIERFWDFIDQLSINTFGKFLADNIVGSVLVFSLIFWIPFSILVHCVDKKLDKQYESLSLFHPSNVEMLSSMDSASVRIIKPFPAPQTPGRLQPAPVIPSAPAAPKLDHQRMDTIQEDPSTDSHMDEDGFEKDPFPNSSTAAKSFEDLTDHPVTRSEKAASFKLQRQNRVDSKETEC
- assayExplanation: TACE inhibition (fluorescent peptidyl substrate)
- Format: biochemical
- setupConditions: IC 50 nM (In Vitro Inhibition of TACE), Table 15
readoutKind: IC50 (nM)

CC#CCOc1ccc(S(=O)(=O)N[C@H](CCCNS(=O)(=O)c2cn(C)cn2)C(=O)NO)cc1 [Example 375] :: 24.6
CC#CCOc1ccc(S(=O)(=O)N[C@H](CCCCNC(=O)/C=C/c2ccccc2)C(=O)NO)cc1 [Example 366] :: 106
CC#CCOc1ccc(S(=O)(=O)N[C@H](CCCCN)C(=O)NO)cc1 [Example 308] :: 29.5

(1) CC#CCOc1ccc(S(=O)(=O)N[C@H](Cc2ccc(F)cc2)C(=O)NO)cc1 [Example 316]
(2) CC#CCOc1ccc(S(=O)(=O)N[C@H](CCCNC(C)=O)C(=O)NO)cc1 [Example 328]
(3) CC#CCOc1ccc(S(=O)(=O)N[C@H](C(=O)NO)c2ccccc2)cc1 [Example 95]
(4) CC#CCOc1ccc(S(=O)(=O)N2CCCC[C@@H]2C(=O)NO)cc1 [Example 318]
(5) CC#CCOc1ccc(S(=O)(=O)N[C@@H](CCCN=C(N)NS(=O)(=O)c2ccc(C)cc2)C(=O)NO)cc1 [Example 65]
Request: Sort the compounds on IC50; start with the lowest figure. List the labels according to the requested ordering.
Response: 1, 2, 4, 3, 5
(1: 4 nM, 2: 6.26 nM, 4: 11.9 nM, 3: 120 nM, 5: 398 nM)

(A) CC#CCOc1ccc(S(=O)(=O)N[C@H](CCCNC(=O)C2CCCCC2)C(=O)NO)cc1 [Example 335]
(B) CC#CCOc1ccc(S(=O)(=O)N[C@H](CCCNC(=N)N)C(=O)NO)cc1 [Example 296]
(C) CC#CCOc1ccc(S(=O)(=O)N[C@H](CCCNC(=O)c2sccc2Cl)C(=O)NO)cc1 [Example 333]
(D) CC#CCOc1ccc(S(=O)(=O)N[C@H](C(=O)NO)C2CCCCC2)cc1 [Example 72]
Request: # rank_down: sort by IC50, max first List the labels according to the requested ordering.
Response: D, B, A, C

* * *

- measuredOn: TNF-α converting enzyme (TACE) (Homo sapiens)
- assayExplanation: TACE inhibition (fluorescent peptidyl substrate)
- Type: biochemical
- setupConditions: Table 11; read-out: TACE IC50
readoutKind: IC50 (nM)

CC#CCOc1ccc(S(=O)(=O)N2C[C@H](CC(=O)N(C)C)SC(C)(C)[C@@H]2C(=O)NO)cc1 :: 130

(P) CC#CCOc1ccc(S(=O)(=O)N2C[C@H](CC(=O)NCCN(C)C)SC(C)(C)[C@@H]2C(=O)NO)cc1
(Q) CC#CCOc1ccc(S(=O)(=O)N2C[C@H](CC(=O)NO)SC(C)(C)[C@@H]2C(=O)NO)cc1
(R) CC#CCOc1ccc(S(=O)(=O)N2[C@@H](C(=O)NO)C(C)(C)SC[C@@H]2C)cc1
Request: # rank_down: sort by IC50, max first List the labels according to the requested ordering.
Response: P, R, Q
(P: 125 nM, R: 86 nM, Q: 46 nM)

* * *

- measuredOn: TNF-α converting enzyme (TACE) (Homo sapiens, UniProt P78536)
- assayExplanation: TACE inhibition (fluorescent peptidyl substrate)
- Assay type: biochemical
- setupConditions: read-out: IC 50 nM (In Vitro Inhibition of TACE); Table 15
readoutKind: IC50 (nM)

CC#CCOc1ccc(S(=O)(=O)NC(CC(C)C)C(=O)NO)cc1 (centres unmarked) :: 5.7
CC#CCOc1ccc(S(=O)(=O)N[C@H](CCCNC(=O)Oc2ccc(OC)cc2)C(=O)NO)cc1 :: 8.4

(I) CC#CCOc1ccc(S(=O)(=O)N[C@H](CCCNC(=O)c2cc(C)oc2C)C(=O)NO)cc1
(II) CC#CCOc1ccc(S(=O)(=O)NC(CSC(C)(C)C)C(=O)NO)cc1 (centres unmarked)
Request: Which has the smaller recorded IC50, I or II ? Reply briefly: the label of your chosen item.
Response: I

* * *

- measuredOn: MMP-9 (Homo sapiens)
- Sequence (P14780 94-707): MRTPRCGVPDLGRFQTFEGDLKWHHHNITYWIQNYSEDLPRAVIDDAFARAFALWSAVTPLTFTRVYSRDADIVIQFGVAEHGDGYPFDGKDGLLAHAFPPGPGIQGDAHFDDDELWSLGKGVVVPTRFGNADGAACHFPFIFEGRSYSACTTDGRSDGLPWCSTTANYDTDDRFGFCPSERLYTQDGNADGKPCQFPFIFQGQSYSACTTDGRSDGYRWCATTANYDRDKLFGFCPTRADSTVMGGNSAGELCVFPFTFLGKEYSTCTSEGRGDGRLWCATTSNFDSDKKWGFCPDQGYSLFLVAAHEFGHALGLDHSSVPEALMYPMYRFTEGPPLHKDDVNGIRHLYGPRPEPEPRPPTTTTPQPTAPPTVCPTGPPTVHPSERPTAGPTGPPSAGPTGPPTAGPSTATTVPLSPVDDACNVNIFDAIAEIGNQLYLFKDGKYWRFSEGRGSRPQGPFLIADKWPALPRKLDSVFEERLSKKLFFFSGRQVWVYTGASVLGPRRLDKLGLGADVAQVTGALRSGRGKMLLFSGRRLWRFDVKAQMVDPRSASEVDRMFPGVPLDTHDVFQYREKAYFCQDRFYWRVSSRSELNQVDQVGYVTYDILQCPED
- assayExplanation: MMP-9 inhibition (thiopeptide or fluorescent peptide substrate)
- Assay type: biochemical
- setupConditions: Table 10; read-out: MMP-9 IC50
readoutKind: IC50 (nM)

In the examples that follow, each entry is paired with its recorded IC50.
CN(CC#CCOc1ccc(S(=O)(=O)N2CCSC(C)(C)C2C(=O)NO)cc1)C(=O)OC(C)(C)C (centres unmarked) :: 1260
CC(C)(C)OC(=O)NCC#CCOc1ccc(S(=O)(=O)N2CCSC(C)(C)C2C(=O)NO)cc1 (centres unmarked) :: 31
CC1(C)SCCN(S(=O)(=O)c2ccc(OCC#CCCOC3CCCCO3)cc2)C1C(=O)NO (centres unmarked) :: 178
CC1(C)SCCN(S(=O)(=O)c2ccc(OCC#CCCCO)cc2)C1C(=O)NO (centres unmarked) :: 377

(1) CC1(C)SCCN(S(=O)(=O)c2ccc(OCC#CCCO)cc2)C1C(=O)NO (centres unmarked)
(2) CC1(C)SCCN(S(=O)(=O)c2ccc(OCC#CCCCOC3CCCCO3)cc2)C1C(=O)NO (centres unmarked)
Request: API: POST /compare with 1 and 2 ; response names the item with higher IC50. Reply briefly: the label of your chosen item.
Response: 1

(A) CC(C)(C)OC(=O)NCCCC#CCOc1ccc(S(=O)(=O)N2CCSC(C)(C)[C@@H]2C(=O)NO)cc1
(B) CC1(C)SCCN(S(=O)(=O)c2ccc(OCC#CCCCN)cc2)[C@H]1C(=O)NO
Request: Which has the smaller recorded IC50, A or B ? Reply briefly: the label of your chosen item.
Response: B
(B: 28 nM, A: 160 nM)
